experimental-system: IRAK4 (Homo sapiens, UniProt Q9NWZ3)
Construct: endogenous in cells; host or cells: THP-1 cells
Sequence (Q9NWZ3 whole entry): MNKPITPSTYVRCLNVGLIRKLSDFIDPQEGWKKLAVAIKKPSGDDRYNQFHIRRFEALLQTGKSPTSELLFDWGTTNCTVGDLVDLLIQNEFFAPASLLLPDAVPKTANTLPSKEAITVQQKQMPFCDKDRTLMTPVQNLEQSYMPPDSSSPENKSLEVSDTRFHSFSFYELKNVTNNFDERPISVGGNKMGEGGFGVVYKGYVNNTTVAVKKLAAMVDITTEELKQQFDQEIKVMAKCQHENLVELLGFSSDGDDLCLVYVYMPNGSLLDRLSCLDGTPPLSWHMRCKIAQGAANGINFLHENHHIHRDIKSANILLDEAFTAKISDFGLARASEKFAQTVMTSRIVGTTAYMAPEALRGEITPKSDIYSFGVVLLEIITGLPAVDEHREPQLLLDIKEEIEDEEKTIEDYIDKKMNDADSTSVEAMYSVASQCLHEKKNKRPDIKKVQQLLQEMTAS
assay-method-text: LVL THP1 HTRF (THP1 Homogeneous Time Resolved Fluorescence)
Format: cell-based
conditions-used: THP1 cells, 18 h incubation with compound, read-out: LVL THP1 HTRF EC50
With a cut-off of 40 nM, any DC50 strictly below it is called 1; any DC50 meeting it or above is called -1.

Some entries whose results are on file:
IN: Record C[C@H](C#N)Nc1cc(-n2ncc3cc(C#N)cnc32)ncc1C(=O)N[C@H]1CC[C@H](CCN2CCC(F)(c3ccc([C@@]4(C)CCC(=O)NC4=O)cc3)CC2)CC1 : is its DC50 strictly below 40 nM?
OUT: 1

IN: Okay, and C[C@H](C#N)Nc1cc(-n2ncc3cc(C#N)cnc32)ncc1-n1cc([C@H]2CC[C@H](CCN3CCN(c4ccc(N5CCC(=O)NC5=O)cc4F)CC3)CC2)nn1 ?
OUT: -1

IN: Continue with C[C@H](C#N)Nc1cc(-n2ncc3cc(C#N)cnc32)ncc1C(=O)N[C@H]1CC[C@H](CCN2CCC(c3ccn(C4CCC(=O)NC4=O)c(=O)c3)CC2)CC1 (some centres unmarked)
OUT: -1

# next compound below
IN: # check: DC50 < 40 nM for C[C@H](C#N)Nc1cc(-n2ncc3cc(C#N)c(N)nc32)ncc1-n1cc([C@H]2CC[C@H](CCN3CCN(c4cnc([C@@]5(C)CCC(=O)NC5=O)nc4)CC3)CC2)nn1 (single isomer, unassigned) [P-263]
OUT: 1

---

LVL THP1 HTRF YMIN values for the molecules below.
experimental-system: IRAK4 (Homo sapiens, UniProt Q9NWZ3)
Construct: endogenous in cells; host or cells: THP-1 cells
assay-method-text: LVL THP1 HTRF (THP1 Homogeneous Time Resolved Fluorescence)
Type: cell-based
conditions-used: THP1 cells, 18 h incubation with compound
Counter-ions that a name gives are not always drawn.
Answer with a number only, understood to be in %.

IN: Dear colleague, I am looking for the recorded LVL THP1 HTRF YMIN of the following molecule: C[C@H](C#N)Nc1cc(-n2ncc3cc(C#N)cnc32)ncc1-n1cc([C@H]2CC[C@H](CCN3CCN(c4ccc([C@@]5(C)CCC(=O)NC5=O)nc4)[C@@H](C)C3)CC2)nn1 (single isomer, unassigned) [P-289]
OUT: 7.7

IN: # iterate: Cc1cc(N2CCC(=O)NC2=O)ccc1C1CCN(CC[C@H]2CC[C@H](c3cn(-c4cnc(-n5ncc6cc(C#N)cnc65)cc4N[C@H](C)C#N)nn3)CC2)CC1 [P-334]
OUT: 23.5

IN: # repeat for C[C@H](C#N)Nc1cc(-n2ncc3cc(C#N)cnc32)ncc1-n1cc(C23CCC(CCN4CCN(c5ccc(C6CCC(=O)NC6=O)cc5)CC4)(CC2)C3)nn1 (some centres unmarked) [P-202, TFA]
OUT: 1.4

IN: Another molecule to check: C[C@H](C#N)Nc1cc(-n2ncc3cc(C#N)cnc32)ncc1-n1cc([C@H]2CC[C@H](CCN3CCC(F)(c4ccc([C@@]5(C)CCC(=O)NC5=O)cc4)CC3)CC2)nn1 (single isomer, unassigned) [P-424]
OUT: 5.3

Kindly review the next molecule as well.
IN: Which measured LVL THP1 HTRF YMIN value corresponds to C[C@H](C#N)Nc1cc(-n2ncc3cc(C#N)cnc32)ncc1-n1cc([C@H]2CC[C@H](CCN3CC=C(c4ccc(N5CCC(=O)NC5=O)cc4)CC3)CC2)nn1 [P-330] ?
OUT: 2.3
